biological target: Human BACE-2 (Homo sapiens (Human)); experiment: Test 2: Inhibition of Human BACE-2; assay type: biochemical; details: recombinant BACE-2, pH 4.5, 1 hour preincubation
pIC50: −log10 of the molar value.
readout_label: pIC50

(P) C[C@]1(c2nc(NC(=O)c3ncc(C#N)cc3Cl)ccc2F)N=C(N)OCC1(F)F
(Q) C[C@]1(c2nc(NC(=O)c3ccc(C#N)cn3)ccc2F)N=C(N)OCC1(F)F
(R) C[C@]1(c2nc(NC(=O)c3ncc(Cl)cc3Cl)ccc2F)N=C(N)OCC1(F)F
Hi! Can you put these in order of pIC50, lowest number first? Write the labels out in the order the request specifies.
Q, P, R
(Q: 6.59, P: 7.15, R: 8.40)

(I) C[C@]1(c2nc(NC(=O)c3ncc(C(F)F)nc3N)ccc2F)N=C(N)OCC1(F)F
(II) Cc1cc(C#N)cnc1C(=O)Nc1ccc(F)c([C@@]2(C)N=C(N)OCC2(F)F)n1
(III) [2H]C([2H])([2H])C([2H])([2H])Oc1cnc(C(=O)Nc2ccc(F)c([C@@]3(C)N=C(N)OCC3(F)F)n2)c(N)n1
hey, can you rank those compounds up there by pIC50? biggest number first please Labels, ranked as asked.
II, I, III
(II: 7.18, I: 6.24, III: 5.00)

(a) C[C@]1(c2nc(NC(=O)c3nn(C(F)F)cc3Cl)ccc2F)N=C(N)OCC1(F)F
(b) C[C@]1(c2nc(NC(=O)c3ncc(C#CCO)cc3Cl)ccc2F)N=C(N)OCC1(F)F
Dear colleague, could you let me know whether a or b has the lower recorded pIC50? Thanks. Lab log: write the label of the selected item as the result.
b

(I) C[C@]1(c2nc(NC(=O)c3ncc(C(F)(F)F)nc3N)ccc2F)N=C(N)OCC1(F)F
(II) C[C@]1(c2nc(NC(=O)c3ncc(C(F)F)cc3N)ccc2F)N=C(N)OCC1(F)F
Which record shows the lower pIC50: the first, I , or the second, II ? Field: selected label. Fill in the label of the entry you choose.
I
(I: 5.85, II: 6.59)

###

target: Human BACE-1 (Homo sapiens (Human), UniProt P56817); test: Test 1: Inhibition of Human BACE-1; settings: recombinant BACE-1, pH 4.5, 1 hour preincubation
Sequence (P56817 46-457): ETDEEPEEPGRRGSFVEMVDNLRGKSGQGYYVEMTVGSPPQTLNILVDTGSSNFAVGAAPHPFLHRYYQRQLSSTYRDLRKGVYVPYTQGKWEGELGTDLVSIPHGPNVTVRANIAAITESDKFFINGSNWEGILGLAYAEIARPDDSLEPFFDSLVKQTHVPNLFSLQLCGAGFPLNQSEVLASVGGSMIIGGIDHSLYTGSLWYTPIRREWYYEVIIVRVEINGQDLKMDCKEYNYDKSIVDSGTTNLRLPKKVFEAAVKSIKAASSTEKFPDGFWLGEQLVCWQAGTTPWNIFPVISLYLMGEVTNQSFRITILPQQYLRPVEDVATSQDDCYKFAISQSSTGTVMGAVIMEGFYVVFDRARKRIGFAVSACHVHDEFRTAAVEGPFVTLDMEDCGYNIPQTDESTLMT
readout_label: IC50 (nM)

Here's what some known entries look like.
> print(dat)
                        structure.as.smiles                        measurement.target  readout.label  reading.unit  readout.value
1  C[C@]1(c2nc(NC(=O)c3ccc(C#N)cn3)ccc2F)N=C(N)OCC1(F)F  Human BACE-1 (Homo sapiens (Human), UniProt P56817)           IC50            nM             54
2  C[C@]1(c2nc(NC(=O)c3nccnc3N)ccc2F)N=C(N)OCC1(F)F  Human BACE-1 (Homo sapiens (Human), UniProt P56817)           IC50            nM            540
3  C[C@]1(c2nc(NC(=O)c3ncc(C(F)F)cc3N)ccc2F)N=C(N)OCC1(F)F  Human BACE-1 (Homo sapiens (Human), UniProt P56817)           IC50            nM            140
4  Cc1cc(C#N)cnc1C(=O)Nc1ccc(F)c([C@@]2(C)N=C(N)OCC2(F)F)n1  Human BACE-1 (Homo sapiens (Human), UniProt P56817)           IC50            nM             12

(I) C[C@]1(c2nc(NC(=O)c3ncc(C(F)F)nc3N)ccc2F)N=C(N)OCC1(F)F
(II) C[C@]1(c2nc(NC(=O)c3ncc(OCCCl)nc3N)ccc2F)N=C(N)OCC1(F)F
Kindly compare I with II and tell me which has the lower IC50 figure. Refer to your chosen item by its label in the answer.
I

###

assay: Test 4: Inhibition of Cellular Release of Amyloid Peptide 1-40; assay type: cell-based, Chinese hamster; settings: Cricetulus griseus; CHO cells with human APP, 24 hours with compound; read-out: Test 4 Amyloid-β1-40 release IC50
pIC50: −log10 of the molar value.
readout_label: pIC50

Previously resolved entries follow.
> print(dat)
                                   compound  readout.value
1  C[C@]1(c2nc(NC(=O)c3ncc(OCF)cc3Cl)ccc2F)N=C(N)OCC1(F)F [Example 26]           7.24
2  C[C@]1(c2nc(NC(=O)c3ncc(C(F)(F)F)nc3N)ccc2F)N=C(N)OCC1(F)F [Example 8]           6.85
3  COCCc1cnc(C(=O)Nc2ccc(F)c([C@@]3(C)N=C(N)OCC3(F)F)n2)c(N)n1 [Example 29]           7.15
4  Cc1cc(C#N)cnc1C(=O)Nc1ccc(F)c([C@@]2(C)N=C(N)OCC2(F)F)n1 [Example 1]           8.15
5  C[C@]1(c2nc(NC(=O)c3ncc(C#CCO)cc3Cl)ccc2F)N=C(N)OCC1(F)F [Example 32]           7.72

(A) CCOc1cnc(C(=O)Nc2ccc(F)c([C@@]3(C)N=C(N)OCC3(F)F)n2)c(Cl)c1 [Example 27]
(B) C[C@]1(c2nc(NC(=O)c3ncc(Cl)cc3N)ccc2F)N=C(N)OCC1(F)F [Example 19]
Could you determine which record has the numerically smaller pIC50? Candidates: A and B Mark your answer with the label of the selected entry.
A
(A: 6.35, B: 7.35)

###

assay: Test 4: Inhibition of Cellular Release of Amyloid Peptide 1-40; type: cell-based, Chinese hamster; settings: Cricetulus griseus; CHO cells with human APP, 24 hours with compound; read-out: Test 4 Amyloid-β1-40 release IC50
readout_label: IC50 (nM)

> print(dat)
                        structure.as.smiles  readout.label  reading.unit  readout.value
1  C[C@]1(c2nc(NC(=O)c3nccnc3N)ccc2F)N=C(N)OCC1(F)F           IC50            nM            180
2  CC(F)(F)c1cnc(C(=O)Nc2ccc(F)c([C@@]3(C)N=C(N)OCC3(F)F)n2)c(N)n1           IC50            nM            310
3  C[C@]1(c2nc(NC(=O)c3ncc(OCC(F)(F)F)nc3N)ccc2F)N=C(N)OCC1(F)F           IC50            nM            600
4  C[C@]1(c2nc(NC(=O)c3ncc(OCCF)nc3N)ccc2F)N=C(N)OCC1(F)F           IC50            nM            480
5  C[C@]1(c2nc(NC(=O)c3ncc(C#N)cc3Cl)ccc2F)N=C(N)OCC1(F)F           IC50            nM              8
6  C[C@]1(c2nc(NC(=O)c3ncc(OCCCF)nc3N)ccc2F)N=C(N)OCC1(F)F           IC50            nM            310

(I) COc1cnc(C(=O)Nc2ccc(F)c([C@@]3(C)N=C(N)OCC3(F)F)n2)c(C)c1
(II) C[C@]1(c2nc(NC(=O)c3ccc(C#N)cn3)ccc2F)N=C(N)OCC1(F)F
Of I and II , which shows the smaller IC50 value? Bench note: the answer is the label of the chosen record.
II
(II: 14 nM, I: 82 nM)

###

molecular target: Human BACE-2 (Homo sapiens (Human), UniProt Q9Y5Z0); test: Test 2: Inhibition of Human BACE-2; conditions: recombinant BACE-2, pH 4.5, 1 hour preincubation
Sequence (Q9Y5Z0 63-473): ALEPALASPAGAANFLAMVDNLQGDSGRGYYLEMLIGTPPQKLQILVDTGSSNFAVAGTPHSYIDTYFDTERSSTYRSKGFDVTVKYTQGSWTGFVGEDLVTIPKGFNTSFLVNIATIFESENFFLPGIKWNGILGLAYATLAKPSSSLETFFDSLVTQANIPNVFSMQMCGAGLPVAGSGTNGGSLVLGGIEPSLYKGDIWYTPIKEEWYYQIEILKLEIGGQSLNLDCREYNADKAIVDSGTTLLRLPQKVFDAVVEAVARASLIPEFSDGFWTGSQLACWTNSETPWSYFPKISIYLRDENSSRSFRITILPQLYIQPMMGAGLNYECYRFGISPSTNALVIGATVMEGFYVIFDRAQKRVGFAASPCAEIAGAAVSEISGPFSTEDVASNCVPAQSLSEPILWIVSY
readout_label: IC50 (nM)

(P) C[C@]1(c2nc(NC(=O)c3ncc(C#CCO)cc3N)ccc2F)N=C(N)OCC1(F)F
(Q) C[C@]1(c2nc(NC(=O)c3ncc(OCC(F)(F)F)nc3N)ccc2F)N=C(N)OCC1(F)F
Kindly identify the item with the lower IC50 figure among these two: P and Q Return value: the label identifying the chosen record.
Q

(a) COCCOc1cnc(C(=O)Nc2ccc(F)c([C@@]3(C)N=C(N)OCC3(F)F)n2)c(N)n1
(b) CCOc1cnc(C(=O)Nc2ccc(F)c([C@@]3(C)N=C(N)OCC3(F)F)n2)c(Cl)c1
(c) COCC#Cc1cnc(C(=O)Nc2ccc(F)c([C@@]3(C)N=C(N)OCC3(F)F)n2)c(Cl)c1
(d) C[C@]1(c2nc(NC(=O)c3ncc(OCC(F)F)nc3N)ccc2F)N=C(N)OCC1(F)F
// smallest IC50 at index 0, largest at the end Quick reminder: the answer is the labels in the order asked.
b, c, d, a

###

assay: Test 4: Inhibition of Cellular Release of Amyloid Peptide 1-40; type: cell-based, Chinese hamster; settings: Cricetulus griseus; CHO cells with human APP, 24 hours with compound; read-out: Test 4 Amyloid-β1-40 release IC50
pIC50: −log10 of the molar value.
readout_label: pIC50

> print(dat)
                                   molecule  readout.label  readout.value
1  CC(F)(F)c1cnc(C(=O)Nc2ccc(F)c([C@@]3(C)N=C(N)OCC3(F)F)n2)c(Cl)c1 [Example 36]          pIC50           7.24
2  C[C@]1(c2nc(NC(=O)c3ncccc3Cl)ccc2F)N=C(N)OCC1(F)F [Example 20]          pIC50           7.06
3  C[C@]1(c2nc(NC(=O)c3ncc(OCC(F)F)cc3Cl)ccc2F)N=C(N)OCC1(F)F [Example 24]          pIC50           6.60
4  COCC#Cc1cnc(C(=O)Nc2ccc(F)c([C@@]3(C)N=C(N)OCC3(F)F)n2)c(N)c1 [Example 14]          pIC50           6.27
5  COCC#Cc1cnc(C(=O)Nc2ccc(F)c([C@@]3(C)N=C(N)OCC3(F)F)n2)c(Cl)c1 [Example 21]          pIC50           7.09

(A) C[C@]1(c2nc(NC(=O)c3ncc(OCF)nc3N)ccc2F)N=C(N)OCC1(F)F [Example 15]
(B) C[C@]1(c2nc(NC(=O)c3ncc(F)cc3N)ccc2F)N=C(N)OCC1(F)F [Example 18]
(C) C[C@]1(c2nc(NC(=O)c3ncc(OCC(F)F)nc3N)ccc2F)N=C(N)OCC1(F)F [Example 11]
(D) [2H]C([2H])([2H])C([2H])([2H])Oc1cnc(C(=O)Nc2ccc(F)c([C@@]3(C)N=C(N)OCC3(F)F)n2)c(N)n1 [Example 28]
(E) C[C@]1(c2nc(NC(=O)c3nn(C(F)F)cc3Cl)ccc2F)N=C(N)OCC1(F)F [Example 30]
Which order do these items take when sorted by rising pIC50? List them. Show the ranking through the labels, in the order asked for.
D, C, B, A, E

(1) C[C@]1(c2nc(NC(=O)c3ncc(C(F)F)nc3N)ccc2F)N=C(N)OCC1(F)F [Example 22]
(2) C[C@]1(c2nc(NC(=O)c3ncc(Cl)cc3Cl)ccc2F)N=C(N)OCC1(F)F [Example 9]
# query: argmin of pIC50 over 1 and 2 Output the label that corresponds to your choice.
1

(a) C[C@]1(c2nc(NC(=O)c3ncc(OCCCl)nc3N)ccc2F)N=C(N)OCC1(F)F [Example 23]
(b) C[C@]1(c2nc(NC(=O)c3ncc(C#CCO)cc3N)ccc2F)N=C(N)OCC1(F)F [Example 17]
Hi! Which is lower in terms of pIC50, the first one a or the second one b ? I would appreciate it if you answered with the label of your choice.
a
(a: 5.54, b: 7.21)

(1) CC(F)(F)c1nc(N)c(C(=O)Nc2ccc(F)c([C@@]3(C)N=C(N)OCC3(F)F)n2)nc1Cl [Example 34]
(2) C[C@]1(c2nc(NC(=O)c3ncc(C(F)F)cc3N)ccc2F)N=C(N)OCC1(F)F [Example 33]
Of 1 and 2 , whose reported pIC50 is the larger number? Answer with the label corresponding to your selection.
2
